From: paper PMC12136991

Answer each item with its documented pEC50.
- target.or.test.system: human μ-opioid receptor (OPRM1) (Homo sapiens, UniProt P35372)
- Sequence (P35372 whole entry): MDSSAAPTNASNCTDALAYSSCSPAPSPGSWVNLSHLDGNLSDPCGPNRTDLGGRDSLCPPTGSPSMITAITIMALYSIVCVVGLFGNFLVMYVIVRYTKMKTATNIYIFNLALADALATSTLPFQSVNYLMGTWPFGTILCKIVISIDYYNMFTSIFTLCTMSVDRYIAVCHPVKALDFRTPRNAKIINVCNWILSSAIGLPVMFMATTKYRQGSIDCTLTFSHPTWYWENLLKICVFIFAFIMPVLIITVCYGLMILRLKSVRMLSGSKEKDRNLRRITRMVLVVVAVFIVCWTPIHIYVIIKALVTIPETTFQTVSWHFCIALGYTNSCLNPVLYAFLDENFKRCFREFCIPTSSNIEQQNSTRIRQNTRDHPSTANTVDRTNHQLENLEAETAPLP
- experimental.details: cell-based
Give bare numbers, as −log10 of the molar value.

// for each compound below, give its pEC50
1. C=C[C@H]1C2CCCC1(c1cccc(O)c1)CCN2CCc1cccc(O)c1 (stereo in doubt)
2. C=C[C@H]1[C@H]2CCC[C@]1(c1cccc(O)c1)CCN2CCc1ccc(O)cc1
3. C=C[C@H]1[C@H]2CCC[C@]1(c1cccc(C(N)=O)c1)CCN2CCc1ccccc1
4. C=C[C@H]1[C@H]2CCC[C@]1(c1cccc(NC(C)=O)c1)CCN2CCc1ccccc1

Reply:
1: 9.03; 2: 8.38; 3: 8.28; 4: 8.56

// for each compound below, give its pEC50
1. C=C[C@H]1[C@H]2CCC[C@]1(c1cccc(O)c1)CCN2CCc1ccc(F)cc1
2. C=C[C@H]1C2CCCC1(c1cccc(O)c1)CCN2CCc1ccccc1[N+](=O)[O-] (stereo in doubt)
3. C=C[C@H]1[C@H]2CCC[C@]1(c1cccc(O)c1)CCN2CCc1cccs1
4. C=C[C@H]1[C@H]2CCC[C@]1(c1cccc(O)c1)CCN2CCc1cccc([N+](=O)[O-])c1

Reply:
8.48
8.59
9.10
8.69

====

- target.or.test.system: human μ-opioid receptor (OPRM1) (Homo sapiens)
- experimental.details: cell-based
- applied.conditions: OPRM1, read-out: MOR Agonist %Emax ± SEM
measured.metric: Emax (%)
Give bare numbers, in %.

Example results:
[
  {
    "compound": "C=C[C@H]1[C@H]2CCC[C@]1(c1cccc(C(N)=O)c1)CCN2CCc1ccccc1",
    "Emax, %": 75.1
  },
  {
    "compound": "C=C[C@H]1[C@H]2CCC[C@]1(c1cccc(O)c1)CCN2CCc1ccc(F)cc1",
    "Emax, %": 74.3
  },
  {
    "compound": "C=C[C@H]1[C@H]2CCC[C@]1(c1cccc(NC(C)=O)c1)CCN2CCc1ccccc1",
    "Emax, %": 101
  }
]

// for each compound below, give its Emax
1. C=C[C@H]1[C@H]2CCC[C@]1(c1cccc(O)c1)CCN2CCc1cccs1
2. C=C[C@H]1C2CCCC1(c1cccc(O)c1)CCN2CCc1cccc(O)c1 (stereo in doubt)
3. C=C[C@H]1C2CCCC1(c1cccc(O)c1)CCN2CCc1ccccc1[N+](=O)[O-] (stereo in doubt)
4. C=C[C@H]1[C@H]2CCC[C@]1(c1cccc(O)c1)CCN2CCc1cccc([N+](=O)[O-])c1
5. C=C[C@H]1[C@H]2CCC[C@]1(c1cccc(O)c1)CCN2CCc1ccc(O)cc1

Reply:
101
89.7
92.6
85.8
54.8

====

- experimental.details: Multi-point microsome stability assay, mouse
- Assay type: in vitro ADME
- applied.conditions: male, CD-1, mouse, mouse microsomal fractions, pH 7.4
Answer each item with its documented half-life at 1 μM.
Numbers only, in min.

Example results:
[
  {
    "mol": "C=C[C@H]1[C@H]2CCC[C@]1(c1cccc(C(N)=O)c1)CCN2CCc1ccccc1",
    "half-life at 1 μM [min]": 16.7
  },
  {
    "mol": "C=C[C@H]1[C@H]2CCC[C@]1(c1cccc(NC(C)=O)c1)CCN2CCc1ccccc1",
    "half-life at 1 μM [min]": 6.4
  },
  {
    "mol": "C=C[C@H]1[C@H]2CCC[C@]1(c1cccc(O)c1)CCN2C",
    "half-life at 1 μM [min]": 21.8
  }
]

Task item: Fill blank: measured half-life at 1 μM of the compound C=C[C@H]1[C@H]2CCC[C@]1(c1cccc(O)c1)CCN2CCc1ccc([N+](=O)[O-])cc1 is ____.
Reply: 9.31
